# target.or.test.system: D(1A) dopamine receptor (Homo sapiens) (UniProt P21728)
# Sequence (P21728 whole entry, looked up): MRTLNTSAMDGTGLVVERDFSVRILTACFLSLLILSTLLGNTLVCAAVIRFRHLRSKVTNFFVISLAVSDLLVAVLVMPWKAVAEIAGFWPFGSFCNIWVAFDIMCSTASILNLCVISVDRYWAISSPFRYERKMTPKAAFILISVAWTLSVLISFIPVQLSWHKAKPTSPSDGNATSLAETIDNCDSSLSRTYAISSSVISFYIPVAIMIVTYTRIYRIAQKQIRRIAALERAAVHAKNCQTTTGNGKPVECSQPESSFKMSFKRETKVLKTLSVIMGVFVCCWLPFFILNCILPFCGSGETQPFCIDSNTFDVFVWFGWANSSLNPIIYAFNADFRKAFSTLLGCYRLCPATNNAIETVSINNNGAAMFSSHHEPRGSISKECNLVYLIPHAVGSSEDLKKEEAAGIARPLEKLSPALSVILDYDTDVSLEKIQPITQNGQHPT
# experimental.protocol: Antagonist of Human D 1 Dopamine Receptor: qHTS; further: on the % scale 0 is the no-effect control and ±100 the full control effect
# reported.conditions: HEK293 TREx D1 cells, calcium flux, dopamine EC80; at 10 µM; stronger effect = lower value
The campaign covered roughly 360,000 compounds. About 11,000 (3.1%) were called active. Shown is part of a subset that was picked to be rich in actives.
Measured activity change, negative = inhibition by item
Write the answer as a number in %, unit excluded.

Form field activity change, negative = inhibition, entry Nc1nc(NC(=O)/C=C/c2ccc(F)cc2)nn1-c1ccccc1 : 8.35

Form field activity change, negative = inhibition, entry CSc1ccc(CCNC(=O)c2cc(C)nc3c2c(C)nn3-c2cccc(F)c2)cc1 : -11.8

Form field activity change, negative = inhibition, entry CSc1ccc(CCNC(=O)c2ccc3c(c2)nc2n3CCOC2)cc1 : 11.3

Form field activity change, negative = inhibition, entry N#Cc1ccc(C(c2nnnn2CCc2ccccc2)N2CCCCCC2)cc1 (stereo not drawn) : 10.7

Form field activity change, negative = inhibition, entry O=C(O)[C@@H]1CCCN1c1ncnc2sc3c(c12)CCC3 : -59.2

###

# target.or.test.system: D(1A) dopamine receptor (Homo sapiens) (UniProt P21728)
# experimental.protocol: Antagonist of Human D 1 Dopamine Receptor: qHTS; further: on the % scale 0 is the no-effect control and ±100 the full control effect
# reported.conditions: HEK293 TREx D1 cells, calcium flux, dopamine EC80; at 10 µM; stronger effect = lower value
About 11,000 (3.1%) of roughly 360,000 compounds were called active. For the sample, actives were picked, then their nearest neighbours and some compounds at random.
assay.endpoint: activity change, negative = inhibition (%)
Write the answer as a number in %, unit excluded.

Solved entries:
CCOC(=O)c1nnn2c1nc(N1CCN(c3ccccc3)CC1)c1ccccc12 | -35.4
CCCCN1C(=O)c2[nH]nc(-c3ccccc3O)c2C1c1cccc(OCc2ccccc2)c1 (centres undefined) | 6.88
Cc1ccc(NC(=O)CSc2nc3c(c(=O)[nH]2)CN(Cc2ccc4c(c2)OCO4)CC3)cc1C | 11.3
Cc1cccc(NC(c2cccc(F)c2)c2ccc3ccc(C)nc3c2O)n1 (centres undefined) | -16.7
CCCCN(CC)C(=O)c1ccc2c(c1)OCO2 | -2.46

Form field activity change, negative = inhibition, entry CCN(CC)C(=O)CC(c1ccc2c(c1)OCO2)c1c(OC)cc(OC)c2c(-c3ccccc3)cc(=O)oc12 (centres undefined) : -44.6

Form field activity change, negative = inhibition, entry O=C(NC1(C(F)(F)F)N=C(c2ccccc2)N(C2CCCCC2)C1=O)c1ccccc1F (centres undefined) : -5.87

Form field activity change, negative = inhibition, entry CCN(CC)CCC(c1cc(OC)c(OC)c(OC)c1)c1c(OC)cc(OC)c2c(-c3ccccc3)cc(=O)oc12 (centres undefined) : 18.1

Form field activity change, negative = inhibition, entry COc1cccc(NC(=O)C(=O)NCC(c2ccc3c(c2)OCO3)N2CCN(C)CC2)c1 (centres undefined) : 27.8

###

# target.or.test.system: D(1A) dopamine receptor (Homo sapiens) (UniProt P21728)
# experimental.protocol: Antagonist of Human D 1 Dopamine Receptor: qHTS; further: on the % scale 0 is the no-effect control and ±100 the full control effect
# reported.conditions: HEK293 TREx D1 cells, calcium flux, dopamine EC80; at 10 µM; stronger effect = lower value
Hit rate of the full screen: of about 360,000 compounds, about 11,000 (3.1%) were called active. Many of the other results were omitted from the sample, so actives are more common in it than they were.
assay.endpoint: activity change, negative = inhibition (%)
Write the answer as a number in %, unit excluded.

Solved entries:
Cc1cccc(N2CCN(c3ccc(C(=O)O)cc3NC(=O)c3ccccc3F)CC2C)c1 (centres undefined) | 20.1
COc1ccc2c(c1)CCc1c(C(=O)Nc3cc(C)ccc3O)noc1-2 | -13.5
Cc1ccc(C)n1-c1nnc(N2CCC(C(=O)NCc3ccc(F)cc3)CC2)s1 | 0.798
COc1ccc(Cn2c(C(=O)O)c(CNCCc3cccs3)c3ccc(OC)cc32)cc1 | 9.72

Form field activity change, negative = inhibition, entry CC[C@@]12C(=O)N(c3ccccc3)C(=O)N1[C@H](c1ccc(Br)cc1)[C@@H]1C(=O)N(C(C)(C)C)C(=O)[C@@H]12 : -1.44

Form field activity change, negative = inhibition, entry CCOC(=O)CSc1nnc(NC(=O)c2cccc(S(=O)(=O)N3CCCCC3)c2)s1 : -31.1

Every entry's value here was drawn from PubChem BioAssay AID504652.
